Taken from PubChem BioAssay AID292.

System: B6C3F1 mice, ip Sarcoma M5076, median survival T/C
Test: NCI In Vivo Anticancer Drug Screen. Data for tumor model Sarcoma M5076 (intraperitoneal) in B6C3F1 mice
Details: endpoint: median survival time; dose: 100.0 mg/kg/injection; schedule: Q04DX004 (ip); vehicle: suspension in saline; higher = longer survival
Method: The antitumor activity of compounds was measured in mice bearing transplantable tumors. Survival or tumor size were measured and the results are expressed as the measurement made in the treated group (T) divided by the measurement made in the vehicle treated control group (C). The tumor model used in this assay is Sarcoma M5076 (intraperitoneal) in B6C3F1 mice
Inconclusive results and toxic doses are left out.
MEASUREMENT_LABEL: T/C

>  <COMPOUND>
C=CC(=O)NCNC(=O)C=C

>  <T/C>
115 % of control

$$$$

Determine from records and report T/C for `C/C(=N\NC(=O)c1ccccc1O)c1cccc(/C(C)=N/NC(=O)c2ccccc2O)n1` 116 % of control

Determine from records and report T/C for `N/C(=N/N=C/c1cc(Br)cc(Br)c1O)NO` 110 % of control

Determine from records and report T/C for C1OC1CO[C@@H]1CO[C@H]2[C@@H]1OC[C@H]2OCC1CO1 (some centres not stated) 150 % of control

Determine from records and report T/C for `CN1COc2c(n(C)c(=O)[nH]c2=O)C1` 106 % of control

Determine from records and report T/C for `N=C(N)SCc1cccc2c(=O)cc(-c3ccccc3)oc12` 104 % of control

Determine from records and report T/C for COc1cc(C2c3cc4c(cc3[C@@H](OC3OC5CO[C@@H](C)OC5C(O)C3O)[C@H]3COC(=O)C23)OCO4)cc(OC)c1OC (some centres not stated) 99 % of control

Determine from records and report T/C for O=C(O)C1CC(O)CN1 (configuration not stated) 103 % of control

Determine from records and report T/C for `NC(=S)N/N=C/c1ncccc1O` 101 % of control

Determine from records and report T/C for C=C(C)/C([O-])=N/[N+](C)(C)CC(O)CCCCCCCCCCCC (configuration not stated) 92 % of control

----------
test system: B6C3F1 mice, ip Sarcoma M5076, median survival T/C; experiment: NCI In Vivo Anticancer Drug Screen. Data for tumor model Sarcoma M5076 (intraperitoneal) in B6C3F1 mice; conditions: endpoint: median survival time; dose: 50.0 mg/kg/injection; schedule: Q04DX004 (ip); vehicle: Klucel + Tween-80; higher = longer survival
Inconclusive results and toxic doses are left out.
MEASUREMENT_LABEL: T/C

Example entries and their recorded answers appear below.
>  <COMPOUND>
O=C(O)c1ccc(NC(=O)C2C(=O)C(=O)N(c3ccc(C(=O)O)cc3)C2=O)cc1 (stereo unspecified)

>  <TARGET_DESC>
B6C3F1 mice, ip Sarcoma M5076, median survival T/C

>  <T/C>
108 % of control

$$$$
>  <COMPOUND>
N#CC1C(=O)NC(=O)C(C#N)C1CCc1ccccc1 (stereo unspecified)

>  <TARGET_DESC>
B6C3F1 mice, ip Sarcoma M5076, median survival T/C

>  <T/C>
105 % of control

$$$$
>  <COMPOUND>
CCN(CC)C(=Nc1ccc(Cl)c(Cl)c1)SC(NC=O)=C(Cl)Cl

>  <TARGET_DESC>
B6C3F1 mice, ip Sarcoma M5076, median survival T/C

>  <T/C>
104 % of control

$$$$
>  <COMPOUND>
CC(=O)C1C(=O)C(=O)N(c2cc(C)ccc2O)C1=O (stereo unspecified)

>  <TARGET_DESC>
B6C3F1 mice, ip Sarcoma M5076, median survival T/C

>  <T/C>
106 % of control

$$$$
>  <COMPOUND>
CCCCCCCCCCCC1C(C#N)C(=O)NC(=O)C1C#N (stereo unspecified)

>  <TARGET_DESC>
B6C3F1 mice, ip Sarcoma M5076, median survival T/C

>  <T/C>
104 % of control

$$$$

Consider now this further compound.
Determine from records and report T/C for O=C(Nc1ccc([N+](=O)[O-])cc1)C1C(=O)C(=O)N(c2ccc([N+](=O)[O-])cc2)C1=O (stereo unspecified) 96 % of control
